Listed next: entries and their corresponding koff.
Target: T1, biotinylated GITR (human, UniProt Q9Y5U5 26-161, limits assumed, biotinylated (sites not given))
T1 construct: also called GITR-bio; Biotin-GITR
T1 sequence: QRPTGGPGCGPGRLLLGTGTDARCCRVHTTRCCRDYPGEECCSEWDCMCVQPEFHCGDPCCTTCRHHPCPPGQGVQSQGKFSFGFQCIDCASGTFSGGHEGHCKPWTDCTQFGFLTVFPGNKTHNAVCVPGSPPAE
Experiment: BLI (Octet), biotin-GITR on streptavidin tips, antibody supernatant
Number only, in s⁻¹; omit the unit.

INSERT INTO assay_data (binder, val) VALUES
  ('germline variant antibody 80 (H1917D07 / K1917D07) (antibody, V domains shown, IGHG1/IGKC expression vectors; measured from CHO culture supernatant; also called Antibody ID 80) VH: QVQLVQSGTEVKKPGASVKVSCKASGYTFTEYAMHWVRQAPGQGMEWMGLIRTFSGDVSYNQKFRGRVTMTVDTSISTAYMELSRLRSDDTAVYYCAKSGTVRGFAYWGQGTLVTVSS VL: DIVMTQSPDSLAVSLGERATINCKSSQSLLNSSNQKNYLTWYQQKPGQPPKLLIYWASTRESGVPDRFTGSGSGTDFTLTISSLQAEDVAVYYCQNDYSFPYTFGQGTKLEIK', 0.000454),
  ('germline variant antibody 36 (H1916D06 / K1916D06) (antibody, V domains shown, IGHG1/IGKC expression vectors; measured from CHO culture supernatant; also called Antibody ID 36) VH: QVQLVQSGAEVKKPGASVKVSCKGSGYTFTDYAMYWVRQAPGQGMEWIGVIRTFSGGVSYNQKFRDRVTMTVDKSISTAYMELSRLRSDDTAVYYCAKSGTVRGFAYWGQGTLVTVSS VL: DIVMTQSPDSLAVSLGERATINCKSSQSLLNSSNQKNYLTWYHQKPGQPPKMLIYWASTRESGVPDRFSGSGSGTDFTLTISSVQEEDVAVYHCQNDYSFPYTFGQGTKLEIK', 0.00028);

IN: Request the reported koff associated with germline variant antibody 71 (H1917B07 / K1917B07) (antibody, V domains shown, IGHG1/IGKC expression vectors; measured from CHO culture supernatant; also called Antibody ID 71) VH: QVQLVQSGAEVKKPGASVKVSCKASGYTFTGYAMYWVRQAPGQGMEWMGVIRTFSGGVTYNQKFRGRATMTVDTSISTAYMELSRLRSDDTAVYYCAKSGTVRGFAYWGQGTLVTVSS VL: DIVMTQSPDSLAVSLGERATINCKSSQSLLNSSNQKNYLTWYQQKPGQPPKLLIYWASTRESGVPDRFTGSGSGTDFTLTISSVQAEDVAVYHCQNDYSYPYTFGQGTKLEIK
OUT: 0.000252
